# system: menin/MLL (terbium chelate-labeled menin, FITC-MBM1 peptide) (Homo sapiens, UniProt O00255, T541A)
# Construct: Menin (a.a 1-610-6xhis tag, 2.3 mg/mL in 20 mM Hepes)
# Sequence (O00255 with tags, fused parts or gaps T541A): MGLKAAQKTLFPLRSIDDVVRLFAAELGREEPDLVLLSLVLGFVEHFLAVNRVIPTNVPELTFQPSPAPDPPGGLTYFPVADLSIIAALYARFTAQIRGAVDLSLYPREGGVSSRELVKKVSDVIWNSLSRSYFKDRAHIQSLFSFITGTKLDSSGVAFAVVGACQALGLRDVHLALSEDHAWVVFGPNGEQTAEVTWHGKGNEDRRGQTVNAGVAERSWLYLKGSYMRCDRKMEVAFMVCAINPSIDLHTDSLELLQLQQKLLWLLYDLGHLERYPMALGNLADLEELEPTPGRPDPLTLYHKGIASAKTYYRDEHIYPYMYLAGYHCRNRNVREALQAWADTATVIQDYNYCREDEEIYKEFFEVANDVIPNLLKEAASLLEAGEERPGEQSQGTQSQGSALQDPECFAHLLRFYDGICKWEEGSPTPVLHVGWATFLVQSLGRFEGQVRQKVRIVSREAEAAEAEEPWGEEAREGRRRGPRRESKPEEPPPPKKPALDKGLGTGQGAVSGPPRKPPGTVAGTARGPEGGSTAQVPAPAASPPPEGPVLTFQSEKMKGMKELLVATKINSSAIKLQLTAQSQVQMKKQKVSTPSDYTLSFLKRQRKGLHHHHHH
# experimentalProtocol: Menin/MLL homogenous time-resolved fluorescence (HTRF) assay
# assayConditions: 30 min incubation
# Procedure: 1) Menin/MLL Homogenous Time-Resolved Fluorescence (HTRF) Assay […] Compound potencies were determined by first calculating % inhibition at each compound concentration according to equation 1: […] Where LC and HC are the HTRF values of the assay in the presence or absence of a saturating concentration of a compound that competes with FITC-MBM1 for binding to menin, and HTRF^compound is the measured HTRF value in the presence of the test compound. […]
pIC50: −log10 of the molar value.
propertyMeasured: pIC50

Cc1cncc2c1c(C[C@@H]1CCN(CC3COC3)C1)cn2-c1ccc(F)cc1C(=O)N(C)C(C)C (single isomer, unassigned)    10.33

1: Cc1cncc2c1c(C[C@H]1CN[C@@H](C)C1)cn2-c1ccc(F)cc1C(=O)N(C)C(C)C
2: CCC(CCCN1C[C@H]2CN(C(C)=O)C[C@@H]2C1)N1CC[C@H](Cc2cn(-c3ccc(F)cc3C(=O)N(C)C(C)C)c3cncc(C)c23)C1 (mixture of isomers)
3: Cc1cc(CN2CC(Cc3cn(-c4ccc(F)cc4C(=O)N(C)C(C)C)c4cncc(C)c34)C2)[nH]n1
q: Arrange items by their pIC50 values in increasing order. Sort and list the labels as requested.
a: 1, 3, 2
(1: 8.51, 3: 8.83, 2: 10.51)
